Record form. Attribute: IC50. Fill in for each entry.
tested-on: SARS-CoV-2 M^pro (Severe acute respiratory syndrome coronavirus 2)
assay-details: biochemical
Type: biochemical
Set-up: The main protease (M^pro) of SARS-CoV-2; made in house
run-parameters: IC50 at [S] = 10 µM
Ends that are not written are not given here.
Answers are plain numbers, in µM.

Examples from the recorded data:
LTINWQKYFNT-NH2 [p15] | 12
KYLTWQNSQIN-NH2 [p13] | 4.28
KYTFWQYSQFY-NH2 [p12] | 4.99

# context switch: different substance, same IC50
QUERY: Requested field: IC50. Item: WFTLKQYWQTN-NH2 [p16]
RESULT: 6.66

====

tested-on: SARS-CoV-2 M^pro (Severe acute respiratory syndrome coronavirus 2)
Format: biochemical
Design: The main protease (M^pro) of SARS-CoV-2; made in house
run-parameters: pH 6.9
Ends that are not written are not given here.
measured-attribute: depletion of s01 in presence of inhibitor (%)
Numbers only, in %.

Examples from the recorded data:
WFTLKQYWQTN-NH2 [p16] | 78
KYTFWQYSQFY-NH2 [p12] | 95
KYLTWQNSQIN-NH2 [p13] | 91

# context switch: different substance, same depletion of s01 in presence of inhibitor
QUERY: Requested field: depletion of s01 in presence of inhibitor. Item: LTINWQKYFNT-NH2 [p15]
RESULT: 70

====

tested-on: SARS-CoV-2 M^pro (Severe acute respiratory syndrome coronavirus 2, UniProt P0DTD1)
assay-details: biochemical
Format: biochemical
Set-up: The main protease (M^pro) of SARS-CoV-2; made in house
run-parameters: IC50 at [S] = 40 µM
Ends that are not written are not given here.
measured-attribute: pIC50
Answers are plain numbers, as −log10 of the molar value.

Examples from the recorded data:
WFTLKQYWQTN-NH2 [p16] | 4.63
LTINWQKYFNT-NH2 [p15] | 4.42

Provide reported pIC50 for each item, in the same order as listed.
1. KYLTWQNSQIN-NH2 [p13]
2. KYTFWQYSQFY-NH2 [p12]

RESULT:
1. 4.74
2. 4.79

====

tested-on: SARS-CoV-2 M^pro (Severe acute respiratory syndrome coronavirus 2)
assay-details: biochemical
Type: biochemical
Design: The main protease (M^pro) of SARS-CoV-2; made in house
run-parameters: IC50 at [S] = 20 µM
Ends that are not written are not given here.
Record form. Attribute: IC50. Fill in for each entry.
One number for each entry, in µM.

Examples from the recorded data:
WFTLKQYWQTN-NH2 [p16] | 10.4
KYTFWQYSQFY-NH2 [p12] | 7.49
KYLTWQNSQIN-NH2 [p13] | 6.77

# context switch: different substance, same IC50
QUERY: Query IC50 on SARS-CoV-2 M^pro (Severe acute respiratory syndrome coronavirus 2) for LTINWQKYFNT-NH2 [p15]
RESULT: 18.8

====

Record form. Attribute: IC50. Fill in for each entry.
tested-on: SARS-CoV-2 M^pro (Severe acute respiratory syndrome coronavirus 2)
assay-details: biochemical
Type: biochemical
Parameters: The main protease (M^pro) of SARS-CoV-2; made in house
run-parameters: IC50 at [S] = 2 µM
Ends that are not written are not given here.
Give bare numbers, in µM.

Examples from the recorded data:
WFTLKQYWQTN-NH2 [p16] | 4.79
LTINWQKYFNT-NH2 [p15] | 8.26
KYTFWQYSQFY-NH2 [p12] | 4.53

# context switch: different substance, same IC50
QUERY: Requested field: IC50. Item: KYLTWQNSQIN-NH2 [p13]
RESULT: 2.97
